Origin of values: patent EP4721767A1

# Test system: KB oral epithelial cancer cells
# PROTOCOL_DETAILS: Cell killing activity of camptothecins (CCK-8)
# Type: cell-based
# MEASUREMENT_CONDITIONS: 96 h, killing 4 days
QUANTITY_NAME: pEC50
// scale note: pEC50 = -log10(conc_M); give the bare number

Here are 3 compounds together with their reported answers.
input: GET /values?readout=pEC50&item= CC[C@@]1(O)C(=O)OCc2c1cc1n(c2=O)Cc2c-1nc1ccc(N)c3c1c2CCC3 [MWC-1, reference compound]
output: 7.80

input: GET /values?readout=pEC50&item= CC[C@@]1(O)C(=O)OCc2c1cc1n(c2=O)Cc2c-1nc1ccc(N)c3c1c2C(C)(C)CC3
output: 7.28

input: GET /values?readout=pEC50&item= CC[C@@]1(O)C(=O)OCc2c1cc1n(c2=O)Cc2c-1nc1cc(F)c(C)c3c1c2[C@@H](NC(=O)CO)CC3 [Dxd, reference compound]
output: 6.86

Please find the next compound below.
input: GET /values?readout=pEC50&item= CC[C@@]1(O)C(=O)OCc2c1cc1n(c2=O)Cc2c-1nc1ccc(N)c3c1c2C(F)(F)CC3
output: 8.13
